Could you please report measured PBM E-score of 8-mer for the items listed next?
System: PmTbr T-box DNA-binding domain (GST fusion);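 further: 200 nM protein in PBS on universal arrays averaged over duplicate arrays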
Sequence: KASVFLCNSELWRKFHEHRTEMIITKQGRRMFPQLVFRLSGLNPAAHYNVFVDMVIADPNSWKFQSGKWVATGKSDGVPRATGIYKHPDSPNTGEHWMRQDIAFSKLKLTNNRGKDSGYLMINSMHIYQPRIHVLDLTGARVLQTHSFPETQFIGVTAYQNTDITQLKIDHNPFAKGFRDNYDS
method description: PBM E-score of 8-mer (E-score (dimensionless, -0.5 to 0.5)); Tbr is Tbrain of the sea star Patiria miniata (Pm) or the sea urchin Strongylocentrotus purpuratus (Sp); higher = stronger binding preference
condition: the construct has about 5 more residues each side
The full ranking holds about 33,000 sequences; the median of “E-score (dimensionless, -0.5 to 0.5)” is about -0.049, and the highest 2% start at about 0.37. The entries come from a sample that favours the highest values as a whole.
# answer = number (no unit)

Query: # get_value(readout='PBM E-score of 8-mer', item= "TGTCAACA" )
Result: 0.378

Query: Try this sequence next: "AAGGTGAT"
Result: 0.424

Query: Try this sequence next: "CCCAAGCC"
Result: -0.228

Query: Try this sequence next: "TATAGCAA"
Result: -0.0376

Query: Try this sequence next: "AGGCGTCA"
Result: 0.419

Query: Try this sequence next: "AGCCTCCT"
Result: -0.194

Query: Try this sequence next: "CAGGTGAC"
Result: 0.449

Query: Try this sequence next: "AGCGTTGA"
Result: 0.102

Query: Try this sequence next: "ACGCCTGC"
Result: 0.24

Query: Try this sequence next: "CACCTAGG"
Result: 0.436

Query: Try this sequence next: "AGAGTGCA"
Result: 0.0698

Query: Try this sequence next: "GATGCACC"
Result: -0.0938

Query: Try this sequence next: "CTGGTGAC"
Result: 0.221

Query: Try this sequence next: "ACCCCAGT"
Result: -0.138

Query: Try this sequence next: "CAGATGAC"
Result: -0.0423

Query: Try this sequence next: "AAAAGCGG"
Result: -0.261

Query: Try this sequence next: "CACGTTGG"
Result: 0.261

Query: Try this sequence next: "ACCTTCCA"
Result: 0.0703

Query: Try this sequence next: "GGTCAACA"
Result: 0.123

Query: Try this sequence next: "AGCAGCGA"
Result: -0.0709

Query: Try this sequence next: "GGGGTGAC"
Result: 0.343

Query: Try this sequence next: "GTAGGAAA"
Result: -0.0915

Query: Try this sequence next: "GCCAGTCA"
Result: 0.0625

Query: Try this sequence next: "GCGGCAGC"
Result: 0.0309

Query: Try this sequence next: "GCACAGCC"
Result: -0.192

Query: Try this sequence next: "AAGAATCG"
Result: -0.0615

Query: Try this sequence next: "AACCTAGG"
Result: -0.0117

Query: Try this sequence next: "AGCTGGGC"
Result: -0.222

Query: Try this sequence next: "CGGTGACG"
Result: 0.179

Query: Try this sequence next: "AGGCGTCG"
Result: 0.353

Query: Try this sequence next: "AGGCCCTC"
Result: -0.448

Query: Try this sequence next: "CCAAGGGA"
Result: 0.0414

Query: Try this sequence next: "CGGCGTCA"
Result: 0.219

Query: Try this sequence next: "GAGGTGAC"
Result: 0.45

Query: Try this sequence next: "AGGTGAAA"
Result: 0.347

Query: Try this sequence next: "AGGGTGAT"
Result: 0.197

Query: Try this sequence next: "AGGTGACG"
Result: 0.463

Query: Try this sequence next: "CGGAGTCC"
Result: -0.183

Query: Try this sequence next: "ACGGTGAG"
Result: 0.12

Query: Try this sequence next: "AGGTGACC"
Result: 0.172

Query: Try this sequence next: "AGAGTGAA"
Result: 0.0596

Query: Try this sequence next: "CACCTAGA"
Result: 0.324

Query: Try this sequence next: "AGGCTCTG"
Result: -0.0891

Query: Try this sequence next: "AACTCTCG"
Result: -0.128

Query: Try this sequence next: "GGGTGGGA"
Result: 0.237

Query: Try this sequence next: "CACCTAGC"
Result: 0.418
